- experiment: inhibitors of TNFa-induced NFkB p65 translocation, primary screen, imaging, HUVEC, MLSMR starter and 10KST1 sets (AID 438);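 note: compound added about 3h40 before a 20 min TNFalpha stimulation; signal is the nuclear over cytoplasmic p65 intensity ratio per well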
- test.context: HUVEC TNFa-induced p65 nuclear translocation; at 2 µM, stronger effect = higher value, 0% TNFa-plus-vehicle, 100% no-TNFa wells
Item-by-item account of inhibition

compound	inhibition (%)
CCOC(=O)C1=Nc2ccccc2C1=[N+]=[N-]	-2.2
COc1ccc(N(CC(=O)Nc2cc(C)ccc2C)S(=O)(=O)c2c(C)nn(C)c2C)cc1	-2.3
COc1ccc(-c2nc(C)sc2CC(=O)O)cc1	-15.7
Brc1ccc2[nH]c3nc(SCCN4CCOCC4)nnc3c2c1	-6.3
COc1ccc(NC(=O)CSc2nnc(Cc3cccn3C)n2-c2ccc(F)cc2)cc1	1.1
O=C(CN1C2=NCCN2c2ccccc21)N1CCOCC1	11
CCSc1nnc(NC(=O)C(C(F)(F)F)C(F)(F)F)s1	-5
c1ccc2c(c1)CCOC2CNCCCN1CCCCC1 (centres undefined)	-5.5
Cn1nc(CC(=O)Nc2ccc(N3CCN(C(=O)OC(C)(C)C)CC3)cc2)c2ccccc2c1=O	-32.6
C=CCc1ccccc1OCCCCN1CCCC1	-8
CCOC(=O)C1C2C=CC3(CN(c4cccc(Cl)c4)C(=O)C13)O2 (centres undefined)	-0.3
CCc1nc(N2CCOCC2)c(C#N)c2c1CCCC2	-6.2
Cc1ccc(NC(=O)c2cc(N3CCOCC3)nc3ccccc23)cc1	-10.2
COc1cccc(NC(=O)C2C3C=CC4(O3)C2C(=O)N(C(C)C)C4C(=O)NC2CCCCC2C)c1 (centres undefined)	2.6
CCC(C)(C)NC(=O)CN(Cc1ccc2c(c1)OCO2)C(=O)CCC(=O)Nc1ccccn1	-20.9
CC(=O)N(C(C)=O)c1c(C#N)c(C)n(-c2ccccc2)c1C(=O)c1ccccc1	8.5
CCCC(C)n1[nH]c(=O)cc1N (centres undefined)	-2.2
CCOC(=O)c1ccc(N2C(=O)CC(N(C)CCc3ccc(OC)c(OC)c3)C2=O)cc1 (centres undefined)	-7.1
Cc1ccc(-c2nnc(-c3ccccc3)o2)cc1Br	-3.8
CCCCNc1cc(C)oc(=O)c1C(C)=O	10.2
CCCCOc1ccccc1C(=O)NCCCCCC(=O)O	-2.6
O=c1c2ccccc2nnn1CSc1nnc2sc3ccccc3n12	-14.2
Cc1coc2cc3oc(=O)c4c(c3cc12)CCC4	6.7
O=C(Nc1cccnc1)c1ccc2c(c1)OCO2	-16.9

====

Item-by-item account of z-score
- experiment: DUSP6 inhibitors restoring Erk phosphorylation by chemical complementation, primary imaging in DUSP6-transfected HeLa (AID 609)
- test.context: HeLa MKP-3 transfected, phospho-Erk imaging KS statistic; measured here: nuclear pErk red intensity z-score; at 10 µM; stronger effect = higher value; cells stimulated with TPA for 15 min

compound	z-score
CC1CCN(c2ncnc3c2cnn3Cc2ccc(Cl)cc2)CC1	0.724
CC(C)COc1ccc(C(=O)OCCN2CCOCC2)c(O)c1	0.367
NC(=O)CSc1nnc2n(-c3ccccc3)c(=O)c3c4c(sc3n12)CCCCC4	0.285
COC(=O)c1[nH]c(C)c(/C(O)=C2\C(=O)C(=O)N(CCN3CCOCC3)C2c2ccccc2OC)c1C (centres undefined)	-0.629
COc1cccc(C(=O)c2sc(NC(C)C)nc2N)c1	0.884
Cc1ccc(-n2ncc3c(N4CCCC4)ncnc32)c(C)c1	-0.345
CCCCCOc1ccccc1C(=O)NCCCC(=O)O	0.123
N#Cc1ccc(-c2ccc(OCC(O)Cn3nnc4ccccc43)cc2)cc1 (centres undefined)	0.638
CCOC(=O)/C=c1\s/c(=C(\C#N)C(=O)OCC)n(-c2ccccc2)c1=O	-0.157
COc1cccc(-c2nc(N3CCCCC3C)c3ccccc3n2)c1O (centres undefined)	0.615
O=C(NCCC1=CCCCC1)c1ccc(=O)oc1	0.265
CCN(CC)CCN1C(=O)c2ccccc2NC1c1cc(OC)c(OC)c(OC)c1 (centres undefined)	1.11
CCN(CC)CCN1C(=O)C(=O)/C(=C(/O)c2ccc(OC)cc2)C1c1ccco1 (centres undefined)	0.173
O=C(O)CSCC(=O)Nc1ccc(S(=O)(=O)N2CCCCC2)cc1	0.192
CC(C)CNc1nc2c(c(=O)n(C)c(=O)n2C)n1Cc1cccc(Br)c1	-0.433
CC(=O)/C(C#N)=C1\NC(=O)C(Cc2ccccc2)S1 (centres undefined)	0.071
CCc1[nH]c(=O)c(C#N)c2c1CCCC2	2.79
O=C(Cc1ccccc1)Nc1cccc(-c2nnc(-c3ccco3)o2)c1	1.35
CCC1(C)Cc2c(sc(NC(=O)CCC(=O)O)c2C#N)CO1 (centres undefined)	0.102
CCCn1c(SCC(N)=O)nc2c(c1=O)C1(CCCC1)Cc1ccccc1-2	0.00156
CCCCC(CCC(=O)Nc1ccc(C(=O)OC)cc1)C(=O)O (centres undefined)	-0.623
CCOc1ccc(N=C(NC#N)SCC(=O)NC2CC2)cc1	0.295
O=C(NCc1ccccc1)/C(=N\O)c1ccccc1	0.627
CSc1nncc(=O)[nH]1	-0.327

====

- experiment: inhibitors of E-selectin induction by TNFa, primary screen, imaging, HUVEC, immunofluorescence, MLSMR starter and 10KST1 sets (AID 487);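 note: 100% = median nuclei count of all wells on the same plate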
- test.context: HUVEC TNFalpha-induced E-selectin immunofluorescence imaging, at 2 µM; measured here: cell number, toxicity
Item-by-item account of nuclei count

compound	nuclei count
COc1ccc(NC(=O)C(C)NS(=O)(=O)c2ccccc2)cc1Cl (stereo not drawn)	65%
COC(=O)c1cc(Br)c(=O)n(Cc2ccco2)c1	159%
CCCCN(C)C(=O)CS(=O)(=O)Cc1nc(-c2cccc(OC)c2)oc1C	115%
CCCc1cc(C(=O)Nc2ccccc2SC)no1	121%
COc1ccc(-n2ncc3c(N4CCN(c5cccc(C)c5C)CC4)ncnc32)cc1	105%
CCOn1c(=O)c(=O)n(OCc2ccccc2)c2ccccc21	120%
CCOc1cc(C(=O)Nc2ncccn2)cc(OCC)c1OCC	100%
CC1/C(=N/O)C(CN(C)C)C2CC1C2(C)C (stereo not drawn)	101%
O=C(CN1CCN(c2cccc(Cl)c2)CC1)N1CCCC1	87.6%
COc1ccc(-c2nn(C)c(=O)c3ccccc23)cc1NS(C)(=O)=O	104%
COc1ccc(C(=O)Nn2c(C3CCC3)nc3ccccc3c2=O)c(OC)c1	129%
CCOC(=O)C1=C(C)Nc2nnnn2C1c1c[nH]c2ccccc12 (stereo not drawn)	101%
COCCNC(=O)c1cc(-c2cccs2)on1	126%
CCC(=O)Nc1ccc2nc(SCC(=O)N3CCCC3)sc2c1	122%
COc1ccc(OC)c(C(=O)c2coc3ccc(O)c(CN4CCOCC4)c23)c1	109%
Cc1ccc(CNC(=O)c2cc3c(=O)n4ccccc4nc3n(CC3CCCO3)c2=N)cc1 (stereo not drawn)	93.4%
C=CCNc1nc(NCc2ccccc2)c(C#N)c2c1CN(C)CC2	156%
Cc1ccccc1-c1nc(Cc2ccccc2)no1	93.2%
Cn1c(=O)c2c(ncn2CC(=O)OCC(=O)NC2CCCc3ccccc32)n(C)c1=O (stereo not drawn)	112%
COc1ccc(-c2ccc(-c3noc(-c4ccccc4OC)n3)c(OC)n2)cc1	111%
Cn1c(=O)cc(OCCCC(=O)Nc2ccc3c(c2)OCCO3)c2ccccc21	113%
CC1(C)CC(=O)C2=C(C1)OC(N)=C(C#N)C21C(=O)N(CN2CCOCC2)c2ccccc21 (stereo not drawn)	138%
O=C(CSc1nnc(-c2ccncc2)o1)Oc1ccccc1	109%

====

- experiment: inhibitors of poly I:C-induced TLR3 signaling, primary screen, cell-based, poly I:C stimulus, luciferase, 10K MLSCN set (AID 602277)
- test.context: HEK293-TLR3 RL24 IRF3 luciferase reporter, at 10 µM, stronger effect = higher value

molecule	inhibition / %
CCCCN(C(=O)c1ccc(Cl)cc1)C1CC2CCC(C1)N2C (stereo not drawn)	35.3
O=C(CSc1nc(-c2ccccc2)cs1)NCc1ccco1	-55.9
Cc1cc(C)c2c(C)nn(C3CCCCC3)c2n1	-5.34
COc1ccc(S(=O)(=O)Nc2ccccc2OC)cc1C	27.5
NC(=O)COC(=O)c1ccc(S(=O)(=O)N2CCCCCC2)cc1	14
CCOC(=O)N1CCN(C(=O)CCc2ccc(S(=O)(=O)NCCc3ccccc3)cc2)CC1	5.38
COc1ccc(-c2nnc(SCC(=O)NC(=O)NCc3ccco3)o2)cc1	24.4
CCN1CCN(c2nc3c(c(=O)[nH]c(=O)n3C)n2CCSc2nc3ccccc3s2)CC1	23.6
Cc1nnc(N2C(=O)c3oc4ccccc4c(=O)c3C2c2ccco2)s1 (stereo not drawn)	13.8
CCOc1ccccc1N1Cc2cc(C)c(C)cc2C1	-2.86
Cc1cccc(Cn2c(SCCN3CCCCC3)nc3c2c(=O)[nH]c(=O)n3C)c1	3.02
CC(=O)N(C(C)=O)c1cccc2c(N(C(C)=O)C(C)=O)cccc12	31.6
N#CCOc1nc(N2CCOCC2)nc(N2CCOCC2)n1	18.6
Cc1cc(C)c(S(=O)(=O)Nc2cccnc2)c(C)c1	15.7
Nn1c(SCC(=O)NC2CCCCC2)nnc1C1CC1	16.1
O=C(c1ccco1)N1CCN(C(=O)C2CC(c3ccc(F)cc3)=NO2)CC1 (stereo not drawn)	13.1
COC(=O)CC1SCCNC1=O (stereo not drawn)	-5.15
COC(=O)c1c(NC(=O)CSc2nnnn2C)sc(C)c1C	-14.9
COc1cccc(OC)c1OCCNCCO	20.6
CNC(=O)c1ccc(N(Cc2ccccc2C)S(C)(=O)=O)cc1	11.4
Cn1c(SCC(=O)O)nnc1C1CCCCC1	-23.7
O=C(CSc1nnc(-c2ccncc2)o1)Oc1ccccc1	13.7
CC1CCCCN1CCNS(=O)(=O)c1ccc2c(c1)oc(=O)n2C (stereo not drawn)	18.5
CCOC(=O)C1=C(C)N=C2SCCC(=O)N2C1c1cc(Br)ccc1OC (stereo not drawn)	20.9
Cc1noc(C(=O)Nc2ccc3c(c2)OCO3)c1Cl	-27.6
O=c1sc(Nc2ccccc2)nc2ccsc12	-57.8
COc1ccc(CNc2nc3nc(C)c(Cl)c(C)n3n2)cc1OC	-10.6
O=C(CN1CCN(c2cccc(Cl)c2)CC1)N1CCCC1	-35.4
O=C(Nc1ccccn1)N1CCOCC1	0.112
COC(=O)n1c(=S)oc2cc(Cl)ccc21	31.1
CCOc1ccccc1OCC(=O)Nc1nnc(COC)s1	-12.6
COC(=O)Oc1c(Br)c(=O)oc2ccccc12	-23.7
C=CCSc1nc2sc(C)c(C)c2c(=O)[nH]1	-3.55
COc1cccc(Oc2cn[nH]c2-c2ccc(O)cc2O)c1	12.8
CCOC(=O)C1CCN(C(=O)CCCCn2c(=O)[nH]c3ccccc3c2=O)CC1	-29.5
CCOC(=O)c1cc2c(=O)n3ccccc3nc2n(Cc2ccccc2)c1=N	33.2
CCN(CC)S(=O)(=O)c1ccc(NC(=O)Cn2cnc3ccccc3c2=O)cc1	16
CS(=O)(=O)N1CCN(c2ccccc2NC(=O)c2ccc(-c3ccc(Cl)cc3Cl)o2)CC1	23.2
CN(C)/C=C1\N=C(c2ccc3c(c2)OCO3)OC1=O	-55.4
CN(C(=O)C1CCCO1)c1nnc(-c2ccncc2)s1 (stereo not drawn)	-17.4
Cc1cccc2cc(CN(CCN3CCCC3)C(=O)NC3CCCCC3)c(=O)[nH]c12	38.4
CCCc1nnc(NC(=O)NCCN2C(=O)C3C4C=CC(C4)C3C2=O)s1 (stereo not drawn)	-19.1
CCCC(=O)Nc1nnc(CC(=O)N2CCCC2)s1	21.6
c1ccc(-c2ccccc2OCCn2cncn2)cc1	26
CCC(C)NC(=O)C1c2cc(OC)c(OC)cc2C(=O)N(C)C1c1ccc(OC)cc1 (stereo not drawn)	2.51
Cc1ccc(-c2noc(CCC(=O)NC3CCCc4ccccc43)n2)cc1 (stereo not drawn)	18.8
Cc1ccc(-c2nc(=S)c3c(n2Cc2ccco2)CCCC3)cc1	27.9
c1ccc(-c2nn3c(Cn4nnc5ccccc54)nnc3s2)nc1	-3.15
